Molecular target: T1, ETR1_GAF^1–316 (truncation of the Arabidopsis thaliana ethylene receptor ETR1 containing the transmembrane … (Arabidopsis thaliana, UniProt P49333 1-316, AlexaFluor 488-NHS (amine-reactive dye) label))
T1 construct: Membrane protein kept in Fos-Choline-14; source: E. coli C41(DE3)∆ompF∆acrAB, membranes solubilized in Fos-Choline-14, purified (Ni-NTA IMAC)
T1 sequence (looked up): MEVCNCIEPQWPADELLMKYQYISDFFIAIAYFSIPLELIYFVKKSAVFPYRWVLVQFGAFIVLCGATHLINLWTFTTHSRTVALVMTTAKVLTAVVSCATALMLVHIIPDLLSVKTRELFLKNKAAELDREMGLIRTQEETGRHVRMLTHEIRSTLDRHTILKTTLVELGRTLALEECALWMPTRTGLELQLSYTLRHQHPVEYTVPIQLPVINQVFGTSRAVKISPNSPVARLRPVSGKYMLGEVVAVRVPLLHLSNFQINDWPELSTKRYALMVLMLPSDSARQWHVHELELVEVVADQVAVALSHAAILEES
Test: MST; AlexaFluor488-labelled ETR1_GAF 50 nM, MBDs titrated 100 µM to 24.4 nM; 300 mM NaCl, 50 mM HEPES pH 7.2 with Fos-Choline-14 and glycerol; room temperature; thermophoresis with T-jump; one-site binding model; apparent KD
Conditions: both partners purified
Give Kd for every item shown.
Answers are plain numbers, in µM.

// worked examples, Kd included
RAN1 metal binding domain 2 (MBD2) (domain or fragment, Arabidopsis thaliana, UniProt Q9S7J8 132-207, looked up, Copper-transporting P-type ATPase RAN1 (HMA7), Arabidopsis thaliana, MBD2, AA 132-207; Cloned into pETEV16b (pET-16b derivative with a TEV site); no tag cleavage is described; also called HMA7 MBD2; source: E. coli BL21 Gold (DE3), purified (Ni-NTA IMAC, SEC)) TLVGQFTIGGMTCAACVNSVEGILRDLPGVKRAVVALSTSLGEVEYDPNVINKDDIVNAIEDAGFEGSLVQSNQQD | 22.3
RAN1 degenerate metal binding domain 3 (MBD3) (domain or fragment, Arabidopsis thaliana, UniProt Q9S7J8 205-283, looked up, Copper-transporting P-type ATPase RAN1 (HMA7), Arabidopsis thaliana, MBD3, AA 205-283; Cloned into pETEV16b; also called HMA7 MBD3; source: E. coli BL21 Gold (DE3), purified (Ni-NTA IMAC, SEC); not shown: His tag (deca-histidine), N-terminal, kept) QQDKLVLRVDGILNELDAQVLEGILTRLNGVRQFRLDRISGELEVVFDPEVVSSRSLVDGIEEDGFGKFKLRVMSPYER | 8.3

Form field Kd, entry RAN1 metal binding domain 1 (MBD1) (domain or fragment, Arabidopsis thaliana, UniProt Q9S7J8 55-130, looked up, Copper-transporting P-type ATPase RAN1 (HMA7), Arabidopsis thaliana, MBD1, AA 55-130; Cloned into pETEV16b (pET-16b derivative with a TEV site); no tag cleavage is described; also called HMA7 MBD1; source: E. coli BL21 Gold (DE3), purified (Ni-NTA IMAC, SEC)) LRKIQVGVTGMTCAACSNSVEAALMNVNGVFKASVALLQNRADVVFDPNLVKEEDIKEAIEDAGFEAEILAEEQTQ : 13.3
